The origin of these recorded values is ChEMBL document CHEMBL2401729.

tested on: Vero; test: Cytotoxicity against african green monkey Vero cells assessed as growth inhibition after 72 hrs by MTT assay; assay type: ADME, cell-based; conditions: Chlorocebus sabaeus
metricName: IC50 (µM)
Answers are plain numbers, in µM.

Below: 2 molecules and their reported IC50.
>>> measured("CC/C(=C(\\c1ccccc1)c1ccc(OCCN(C)C)cc1)c1ccccc1")
15.9
>>> measured("CC/C(=C(\\c1ccccc1)c1ccc(OCCN(C)Cc2ccc(NC(=O)CCCCCCC(=O)NO)cc2)cc1)c1ccccc1")
3.6

Query molecule follows.
Task: Quick check: IC50 on Vero, item CC/C(=C(\c1ccccc1)c1ccc(OCCN(C)Cc2ccc(-c3cn(CCCCCC(=O)NO)nn3)cc2)cc1)c1ccccc1 ?
Output: 9.1
